The measurements presented in this section are drawn from BindingDB's records for doi:10.7270/Q2VH5M8G.

Biological target: Regulator of G-protein signaling 16 (Homo sapiens)
Test: small molecules altering RGS16 interaction with Galphao – biochemical, multiplexed bead flow cytometry, SAR compounds, SAR follow-up (AID 2298)
Field 'label' (enum: T / F). Set to T when EC50 is strictly under 200 nM; else F.

Consider the following illustrative entries.
Cc1[nH]n(-c2ccccc2)c(=S)c1/C=N/c1cccc([N+](=O)[O-])c1
T
Cc1cc(C)c2c(=O)n(CC(=O)N3CCN(c4ccccc4)CC3)ccc2n1
T
Nc1c(C(=O)NCC2CCCO2)sc2nc3c(c(-c4ccco4)c12)CC/C3=C/c1ccco1 (stereo unspecified) [UNM-0000305796]
F
CCN=c1scc(C)n1N=Cc1ccc(O)c(O)c1O
F
Cc1[nH]n(-c2ccccc2)c(=S)c1C=NCCCN=Cc1c(C)[nH]n(-c2ccccc2)c1=S
F

Lab note: confirm whether the reported EC50 for this compound is below 200 nM, equality not counting. compound: "CCN(CC)S(=O)(=O)c1cccc(C(=O)NN=Cc2ccc(O)c(O)c2O)c1"
F

Given Cc1cc(Cl)ccc1/N=c1/ssnc1Cl [MLS000539990] , is recorded EC50 strictly lower than 200 nM?
T

Is 200 nM strictly greater than the compound's reported EC50? compound: O=C(Cc1csc(N2CCOCC2)n1)NN=Cc1ccc(O)c(O)c1O [SMR000369439]
F

In plain terms, does "CN1CCN(C2=C(Cl)C(=O)C(c3cnc(N4CCCCC4)s3)=C(Cl)C2=O)CC1" come in under 200 nM for EC50?
T

----------
Target: Regulator of G-protein signaling 16 (Homo sapiens, UniProt O15492)
Test: small molecules altering RGS16 interaction with Galphao – biochemical, multiplexed bead flow cytometry, SAR compounds, SAR follow-up (AID 2298)
Settings: inactive by the depositor's call
assay.endpoint: EC50 (µM)
Give a bare numeral; the unit µM is implied.

Fill in the blank: the reported EC50 of CCOc1ccccc1-c1c2cc(O)c(=O)cc-2oc2cc(O)c(O)cc12 [MLS000578271] is ____.
3.68

----------
Target: Regulator of G-protein signaling 16 (Homo sapiens, UniProt O15492)
Sequence (O15492 whole entry): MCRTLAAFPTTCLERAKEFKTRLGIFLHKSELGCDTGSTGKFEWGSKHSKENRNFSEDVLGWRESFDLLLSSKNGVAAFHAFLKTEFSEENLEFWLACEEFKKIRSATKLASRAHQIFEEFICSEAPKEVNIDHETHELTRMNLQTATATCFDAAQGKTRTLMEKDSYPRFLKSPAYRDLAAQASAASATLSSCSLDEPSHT
Experiment: small molecules altering RGS16 interaction with Galphao – biochemical, multiplexed bead flow cytometry, SAR compounds, SAR follow-up (AID 2298)
The entries below come with measured EC50 values attached.
Please give a number only; it is taken to be in nM.

Some entries whose results are on file:
CC(=O)OCCCNc1cc(Sc2nc3ccccc3s2)c2nonc2c1[N+](=O)[O-] [MLS000521052]
272
O=c1c2ccccc2sn1-c1ccc(S(=O)(=O)N2CCCC2)cc1
27
CCN(CC)S(=O)(=O)c1cccc(-c2n[nH]c(=S)n2N=Cc2ccc(C(=O)OC)cc2)c1
940

Which measured EC50 belongs to CC1(C)OC(=O)C(=Cc2ccc(-c3ccc(S(N)(=O)=O)cc3)o2)C(=O)O1 [SMR000273939] , tested on Regulator of G-protein signaling 16 (Homo sapiens, UniProt O15492)?
3510

Query EC50 on Regulator of G-protein signaling 16 (Homo sapiens, UniProt O15492) for "NS(=O)(=O)c1ccc(N=NCc2ccc(O)c(O)c2O)c([N+](=O)[O-])c1"
29

// map CCC(=O)NC(c1ccc(C)cc1)c1cc([N+](=O)[O-])c2cccnc2c1O (configuration not stated) [MLS000553854] to recorded EC50 (system: Regulator of G-protein signaling 16 (Homo sapiens, UniProt O15492))
5220

What value of EC50 on Regulator of G-protein signaling 16 (Homo sapiens, UniProt O15492) does "O=C(COc1ccccc1C(=O)NN=Cc1ccc(O)c(O)c1)NN=Cc1ccc(O)c(O)c1" have?
116
